Values from ChEMBL document CHEMBL1148235

# ASSAY_PROCEDURE: Bioavailability in rat (dose 1 mg/kg i.v. and 2 mg/kg p.o.)
# Assay type: ADME, organism-based
# MEASUREMENT_CONDITIONS: in vivo, po
RECORDED_METRIC: bioavailability (%)
One number for each entry, in %.

Please review the following examples before continuing.
>>> meas_value("COc1cccc(OC)c1-c1ccc(C[C@H](/N=C(\\NS(C)(=O)=O)[C@@H]2CCN2S(=O)(=O)c2ccccc2)C(=O)O)cc1")
1.6
>>> meas_value("COc1cccc(OC)c1-c1ccc(C[C@H](/N=C(\\NCC(F)(F)F)[C@@H]2CCN2S(=O)(=O)c2ccccc2)C(=O)O)cc1")
1.8
>>> meas_value("COc1cccc(OC)c1-c1ccc(C[C@H](/N=C(\\NCC2CCOOCC2)[C@@H]2CCN2S(=O)(=O)c2ccccc2)C(=O)O)cc1")
0.6
>>> meas_value("CN/C(=N\\[C@@H](Cc1ccc(-c2c(OC)cccc2OC)cc1)C(=O)O)[C@@H]1CCN1S(=O)(=O)c1ccccc1")
0.7
>>> meas_value("CON/C(=N\\[C@@H](Cc1ccc(-c2c(OC)cccc2OC)cc1)C(=O)O)[C@@H]1CCN1S(=O)(=O)c1ccccc1")
9.3

Fill in bioavailability for each of the 2 molecules listed.
1. CN/C(=N\[C@@H](Cc1ccc(-c2c(OC)cccc2OC)cc1)C(=O)O)[C@@H]1CCN1S(=O)(=O)c1cc(Cl)cc(Cl)c1
2. COc1cccc(OC)c1-c1ccc(C[C@H](/N=C(\N)[C@@H]2CCN2S(=O)(=O)c2ccccc2)C(=O)O)cc1

-- reply
[0.8, 0.2]
